# TEST_DETAILS: amyloid nucleation score (Sup35N fusion, yeast selection) (log enrichment); library NNK3; higher = more nucleation; inactive = no reads after selection;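 note: zero at mode of non-aggregating sequences after 7 days selection at 30°C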
RECORDED_ENDPOINT: amyloid nucleation score

1) MQAQRKYMSMRNRYQVAKVE	inactive
2) SLRVLWCIRLKCSCLCWISG	inactive
3) FNLLHTRMTLLYSNIRNRYN	0.358
4) KTDIPGNHFLTSARLCAG	inactive
5) RIPTLIFRLILIMFHDFDFQ	inactive

Q: Query: amyloid nucleation score; subject: `CSIGVRSVVCS`
Result: inactive

Q: Query: amyloid nucleation score; subject: `HINARRLYFTYV`
Result: inactive

Q: Query: amyloid nucleation score; subject: `HVLGRKLFHGVAVVLFSCEL`
Result: inactive
